Where do the numbers come from? From the supplement of paper PMC11061612.

List of Bliss excess values.
# Tested on: NUGC-4 (Gastric Carcinoma)
# test.name: Bliss excess, mean over the matrix (fraction); higher = more synergy
Answer as a number with no unit attached.

A selection of reference data follows.
Cn1cnc2c(F)c(Nc3ccc(Br)cc3Cl)c(C(=O)NOCCO)cc21 [Selumetinib] + C[C@@H]1COCCN1C2=NC(=NC(=C2)C3(CC3)[S@](=N)(=O)C)C4=C5C=CNC5=NC=C4 [AZD6738] (first compound max 10 µM, 7x7, partner max 10 µM)    0.0069
Cc1c2c(nn1C)CSCc1cc(n(C)n1)CSc1cc(c3ccccc3c1)OCCCc1c(C(=O)O)n(C)c3c-2c(Cl)ccc13 [AZD5991] + C[C@@H](Nc1cc(F)cc(F)c1)c1cc(C(=O)N(C)C)cc2c(=O)cc(N3CCOCC3)oc12 [AZD8186] (first compound max 1 µM, 7x7, partner max 3 µM)    -0.0056
Cc1cc2ncnn2cc1Nc1ncc2c(n1)n(C1CCOCC1)c(=O)n2C [AZD7648] + O=C(c1cc(Cc2n[nH]c(=O)c3ccccc23)ccc1F)N1CCN(C(=O)C2CC2)CC1 [Olaparib] (first compound max 10 µM, 7x7, partner max 10 µM)    -0.049

Let us examine a further case.
Ask: Consider the molecule shown here: CN(C)CCCOc1ccc(-c2ccc3ncc4c(c3c2)n(C2CCOCC2)c(=O)n4C)cn1 [AZD0156] + CCN(CCO)CCCOc1ccc2c(Nc3cc(CC(=O)Nc4cccc(F)c4)[nH]n3)ncnc2c1 [AZD2811] (first compound max 1 µM, 7x7, partner max 1 µM) What is its recorded Bliss excess?
Reply: -0.0387

====

# Tested on: LCLC-97TM1 (Non-Small Cell Lung Carcinoma)
# test.name: Bliss excess, mean over the matrix (fraction); higher = more synergy
assay.endpoint: Bliss excess
Answer as a number with no unit attached.

CC(=O)c1c(C)c2cnc(Nc3ccc(N4CCNCC4)cn3)nc2n(C2CCCC2)c1=O [Palbociclib] + Cc1c2c(nn1C)CSCc1cc(n(C)n1)CSc1cc(c3ccccc3c1)OCCCc1c(C(=O)O)n(C)c3c-2c(Cl)ccc13 [AZD5991] (first compound max 10 µM, 7x7, partner max 1 µM)    -0.0149
Cc1cc2ncnn2cc1Nc1ncc2c(n1)n(C1CCOCC1)c(=O)n2C [AZD7648] + C=CCn1c(=O)c2cnc(Nc3ccc(N4CCN(C)CC4)cc3)nc2n1-c1cccc(C(C)(C)O)n1 [AZD1775] (first compound max 10 µM, partner max 1 µM)    0.0234
Cn1cnc2c(F)c(Nc3ccc(Br)cc3Cl)c(C(=O)NOCCO)cc21 [Selumetinib] + CCN(CCO)CCCOc1ccc2c(Nc3cc(CC(=O)Nc4cccc(F)c4)[nH]n3)ncnc2c1 [AZD2811] (first compound max 10 µM, 7x7, partner max 1 µM)    0.0594
CN(C)CCCOc1ccc(-c2ccc3ncc4c(c3c2)n(C2CCOCC2)c(=O)n4C)cn1 [AZD0156] + O=C(c1cc(Cc2n[nH]c(=O)c3ccccc23)ccc1F)N1CCN(C(=O)C2CC2)CC1 [Olaparib] (first compound max 3 µM, partner max 3 µM)    -0.0124
COc1cccc(OCCCN)c1-c1cc(Nc2cnc(C#N)cn2)n[nH]1 [Prexasertib] + CCc1c2c(nc3ccc(O)cc13)-c1cc3c(c(=O)n1C2)COC(=O)[C@]3(O)CC [SN-38] (first compound max 1 µM, 7x7, partner max 0.3 µM)    0.0863
COc1nnc2ccc(N3CCC(c4ccc(OCCN5CCN(C)C(=O)[C@H]5C)cc4)CC3)nn12 [AZD5153] + Cc1c2c(nn1C)CSCc1cc(n(C)n1)CSc1cc(c3ccccc3c1)OCCCc1c(C(=O)O)n(C)c3c-2c(Cl)ccc13 [AZD5991] (first compound max 1 µM, 7x7, partner max 1 µM)    -0.017

Ask: Consider the compound shown here: Cc1c2c(nn1C)CSCc1cc(n(C)n1)CSc1cc(c3ccccc3c1)OCCCc1c(C(=O)O)n(C)c3c-2c(Cl)ccc13 [AZD5991] + CCN(CCO)CCCOc1ccc2c(Nc3cc(CC(=O)Nc4cccc(F)c4)[nH]n3)ncnc2c1 [AZD2811] (first compound max 1 µM, 7x7, partner max 1 µM) What is its recorded Bliss excess?
Reply: 0.0885

====

# System: OVCAR-5 (Ovarian Carcinoma)
# test.name: combination Emax (second highest fraction inhibited in the dose matrix, 72 h); higher = more inhibition; extreme values may be limits of the assay
assay.endpoint: combination Emax
Answer as a number with no unit attached.

A selection of reference data follows.
Cc1cc2ncnn2cc1Nc1ncc2c(n1)n(C1CCOCC1)c(=O)n2C [AZD7648] + C=CCn1c(=O)c2cnc(Nc3ccc(N4CCN(C)CC4)cc3)nc2n1-c1cccc(C(C)(C)O)n1 [AZD1775] (first compound max 10 µM, partner max 1 µM)    0.412
CC1(C)CCC(CN2CCN(c3ccc(C(=O)NS(=O)(=O)c4ccc(NCC5CCOCC5)c([N+](=O)[O-])c4)c(Oc4cnc5[nH]ccc5c4)c3)CC2)=C(c2ccc(Cl)cc2)C1 [Venetoclax] + C[C@@H](Nc1cc(F)cc(F)c1)c1cc(C(=O)N(C)C)cc2c(=O)cc(N3CCOCC3)oc12 [AZD8186] (first compound max 1 µM, 7x7, partner max 3 µM)    0.214
COc1cc2c(cc1OCCCCCOc1cc3c(cc1OC)C(=O)N1C=C(C)C[C@H]1C=N3)N=C[C@@H]1CC(C)=CN1C2=O [SG3199] + O=C(c1cc(Cc2n[nH]c(=O)c3ccccc23)ccc1F)N1CCN(C(=O)C2CC2)CC1 [Olaparib] (first compound max 0.001 µM, 7x7, partner max 10 µM)    0.0819
CN(CCO)CC[C@H](CSc1ccccc1)Nc1ccc(S(=O)(=O)NC(=O)c2ccc(N3CCC([C@@H](O)c4ccccc4-c4ccc(Cl)cc4)CC3)cc2)cc1S(=O)(=O)C(F)(F)F [AZD4320] + CS(=O)(=O)CCNCc1ccc(-c2ccc3ncnc(Nc4ccc(OCc5cccc(F)c5)c(Cl)c4)c3c2)o1 [Lapatinib] (first compound max 1 µM, 7x7, partner max 10 µM)    0.896
COc1nnc2ccc(N3CCC(c4ccc(OCCN5CCN(C)C(=O)[C@H]5C)cc4)CC3)nn12 [AZD5153] + Cn1cnc2c(F)c(Nc3ccc(Br)cc3Cl)c(C(=O)NOCCO)cc21 [Selumetinib] (first compound max 1 µM, 7x7, partner max 10 µM)    0.685

Let us examine a further case.
Ask: Consider the compound shown here: CN(CCO)CC[C@H](CSc1ccccc1)Nc1ccc(S(=O)(=O)NC(=O)c2ccc(N3CCC([C@@H](O)c4ccccc4-c4ccc(Cl)cc4)CC3)cc2)cc1S(=O)(=O)C(F)(F)F [AZD4320] + C1CN(CCC1(C(=O)N[C@@H](CCO)C2=CC=C(C=C2)Cl)N)C3=NC=NC4=C3C=CN4 [Capivasertib] (first compound max 1 µM, 7x7, partner max 3 µM) What is its recorded combination Emax?
Reply: 0.17

====

# Test system: L-428 (Hodgkin's Lymphoma)
# test.name: combination Emax (second highest fraction inhibited in the dose matrix, 72 h); higher = more inhibition; extreme values may be limits of the assay
Label y when combination Emax is at or above 0.8; anything below gets n.

Before answering, review these 5 worked examples.
COc1cccc(OCCCN)c1-c1cc(Nc2cnc(C#N)cn2)n[nH]1 [Prexasertib] + Cc1cc2ncnn2cc1Nc1ncc2c(n1)n(C1CCOCC1)c(=O)n2C [AZD7648] (first compound max 1 µM, 7x7, partner max 10 µM)    y
NC1(C(=O)N[C@@H](CCO)c2ccc(Cl)cc2)CCN(c2ncnc3[nH]ccc23)CC1 [Capivasertib] + C[C@@H]1COCCN1C2=NC(=NC(=C2)C3(CC3)[S@](=N)(=O)C)C4=C5C=CNC5=NC=C4 [AZD6738] (first compound max 10 µM, 7x7, partner max 10 µM)    n
COc1cccc(OCCCN)c1-c1cc(Nc2cnc(C#N)cn2)n[nH]1 [Prexasertib] + CN(C)CCCOc1ccc(-c2ccc3ncc4c(c3c2)n(C2CCOCC2)c(=O)n4C)cn1 [AZD0156] (first compound max 1 µM, 7x7, partner max 1 µM)    y
NC1(C(=O)N[C@@H](CCO)c2ccc(Cl)cc2)CCN(c2ncnc3[nH]ccc23)CC1 [Capivasertib] + Cn1cnc2c(F)c(Nc3ccc(Br)cc3Cl)c(C(=O)NOCCO)cc21 [Selumetinib] (first compound max 10 µM, 7x7, partner max 10 µM)    n
CN(CCO)CC[C@H](CSc1ccccc1)Nc1ccc(S(=O)(=O)NC(=O)c2ccc(N3CCC([C@@H](O)c4ccccc4-c4ccc(Cl)cc4)CC3)cc2)cc1S(=O)(=O)C(F)(F)F [AZD4320] + C=CCn1c(=O)c2cnc(Nc3ccc(N4CCN(C)CC4)cc3)nc2n1-c1cccc(C(C)(C)O)n1 [AZD1775] (first compound max 1 µM, partner max 1 µM)    y

Please turn your attention to the following entry.
Ask: Given CC(=O)c1c(C)c2cnc(Nc3ccc(N4CCNCC4)cn3)nc2n(C2CCCC2)c1=O [Palbociclib] + Cn1cnc2c(F)c(Nc3ccc(Br)cc3Cl)c(C(=O)NOCCO)cc21 [Selumetinib] (first compound max 10 µM, 7x7, partner max 10 µM) , state whether its combination Emax is at least 0.8.
Reply: n
